# Dmax per entry
Biological target: BRAF G469A (Homo sapiens, UniProt P15056, G469A)
Construct: Horizon Discovery (HCT-116 BRAF−/− cells); host or cells: HCT-116 BRAF−/− cells, clone 34, lentiviral transduction
Sequence (P15056 whole entry G469A): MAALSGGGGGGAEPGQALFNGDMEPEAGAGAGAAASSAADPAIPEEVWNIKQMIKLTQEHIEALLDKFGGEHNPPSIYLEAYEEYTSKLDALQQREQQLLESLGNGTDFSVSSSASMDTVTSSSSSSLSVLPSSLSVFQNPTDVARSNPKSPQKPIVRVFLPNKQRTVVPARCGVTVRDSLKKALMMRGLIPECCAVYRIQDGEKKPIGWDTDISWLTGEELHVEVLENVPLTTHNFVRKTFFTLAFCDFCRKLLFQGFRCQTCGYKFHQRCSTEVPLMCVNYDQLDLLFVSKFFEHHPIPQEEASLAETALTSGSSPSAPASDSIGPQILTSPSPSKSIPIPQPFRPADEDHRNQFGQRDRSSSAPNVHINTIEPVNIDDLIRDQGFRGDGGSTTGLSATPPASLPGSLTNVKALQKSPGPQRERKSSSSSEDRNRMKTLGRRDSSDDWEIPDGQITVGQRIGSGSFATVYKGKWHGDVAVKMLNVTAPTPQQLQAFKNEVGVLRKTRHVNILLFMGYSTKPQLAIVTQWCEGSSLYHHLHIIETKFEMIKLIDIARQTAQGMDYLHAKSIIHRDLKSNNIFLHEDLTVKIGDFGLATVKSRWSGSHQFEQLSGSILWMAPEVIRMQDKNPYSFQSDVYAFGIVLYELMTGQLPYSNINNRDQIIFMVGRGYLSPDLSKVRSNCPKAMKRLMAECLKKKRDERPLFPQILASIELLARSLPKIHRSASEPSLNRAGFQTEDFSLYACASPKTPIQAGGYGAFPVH
Experiment: BRAF HiBiT degradation assay, C-terminal HiBiT-tagged BRAF G469A overexpressed in HCT-116 BRAF−/− cells (clone 34), Nano-Glo HiBiT Lytic assay
Format: cell-based
Conditions: HCT-116; Class 2; BRAF G469A; percentage protein degraded at maximal compound effect relative to DMSO
value type: Dmax

>>> value_measured("CCCS(=O)(=O)Nc1cccc(-c2nc(C(C)(C)C)sc2-c2ccnc(Nc3ccc(C4CCN(C(=O)CN5CCN(c6cc(C7CCC(=O)NC7=O)ccn6)CC5)CC4)cc3)n2)c1F (racemic)")
"< 30%"
>>> value_measured("CCCS(=O)(=O)Nc1cccc(-c2nc(C(C)(C)C)sc2-c2ccnc(Nc3ccc(C4CCN(C(=O)C[C@H]5CCN(c6ccc(C7CCC(=O)NC7=O)cc6)C5)CC4)cc3)n2)c1F (mixture of isomers)")
"< 30%"
>>> value_measured("CCCS(=O)(=O)Nc1cccc(-c2nc(C(C)(C)C)sc2-c2ccnc(Nc3ccc(N4CCN(C(=O)[C@@H]5CCN(c6ccc([C@H]7CCC(=O)NC7=O)cn6)C5)CC4)c(F)c3)n2)c1F (racemic)")
"30 to 70%"
>>> value_measured("CCCS(=O)(=O)Nc1cccc(-c2nc(CCC3CCN(C(=O)C4CCN(C(=O)C5CCN(c6ccc(C7CCC(=O)NC7=O)cn6)CC5)CC4)CC3)sc2-c2ccnc(N)n2)c1F (racemic)")
"30 to 70%"
>>> value_measured("CCN(C)S(=O)(=O)Nc1cccc(-c2nc(C(C)(C)C)sc2-c2ccnc(Nc3ccc(N4CCN(CC5CCN(c6ccc([C@@H]7CCC(=O)NC7=O)cc6)CC5)CC4)cn3)n2)c1F")
"30 to 70%"

---

Target: BRAF G469A (Homo sapiens, UniProt P15056, G469A)
Construct: Horizon Discovery (HCT-116 BRAF−/− cells); host or cells: HCT-116 BRAF−/− cells, clone 34, lentiviral transduction
Assay: BRAF HiBiT degradation assay, C-terminal HiBiT-tagged BRAF G469A overexpressed in HCT-116 BRAF−/− cells (clone 34), Nano-Glo HiBiT Lytic assay
Type: cell-based
Details: Class 2; BRAF G469A; DC50 at 50%: fitted conc. at Y=50
# DC50 per entry
value type: DC50

>>> value_measured("CCCS(=O)(=O)Nc1cccc(-c2nc(C(C)(C)C)sc2-c2ccnc(Nc3cnn(CC4CCN(C(=O)[C@H]5CC[C@H](Oc6ccc(C7CCC(=O)NC7=O)cc6)CC5)CC4)c3)n2)c1F (mixture of isomers) [Compound 118]")
"> 500 nM"
>>> value_measured("CCCS(=O)(=O)Nc1cccc(-c2nc(C3CCN(C(=O)C4(C)CCN(C(=O)C5CCN(c6ccc(C7CCC(=O)NC7=O)cn6)CC5)CC4)CC3)sc2-c2ccncn2)c1F (racemic) [Compound 181]")
"> 500 nM"
>>> value_measured("CCCS(=O)(=O)Nc1cccc(-c2cn(-c3ccc(N4CCN(CC5CCN(c6ccc([C@@H]7CCC(=O)NC7=O)cc6)CC5)CC4)nc3)nc2-c2ccncc2)c1F [Compound 4]")
"> 500 nM"
>>> value_measured("CCCS(=O)(=O)Nc1cccc(-c2nc(C3CCN(C(=O)C4CCN(C(=O)C5CCN(c6ccc(C7CCC(=O)NC7=O)cn6)CC5)CC4)CC3)sc2-c2ccnc(NC)n2)c1F (racemic) [Compound 212]")
"10 to 50 nM"
>>> value_measured("CCN(C)S(=O)(=O)Nc1cccc(-c2nc(C(C)(C)C)sc2-c2ccnc(Nc3ccc(N4CCN(C(=O)[C@H]5CC[C@H](CN6CCc7cc(C8CCC(=O)NC8=O)ccc7C6)CC5)CC4)cn3)n2)c1F (mixture of isomers) [Compound 125]")
"> 500 nM"
>>> value_measured("CCCS(=O)(=O)Nc1cccc(-c2nc(C(C)(C)C)sc2-c2ccnc(N[C@H]3CC[C@@H](N4CCN(C(=O)C5CCN(c6ccc(C7CCC(=O)NC7=O)cn6)CC5)CC4)CC3)n2)c1F (mixture of isomers) [Compound 138]")
"< 10 nM"
>>> value_measured("CCCS(=O)(=O)Nc1cccc(-c2nc(C(C)(C)C)sc2-c2ccnc(Nc3ccc(C4CCN(CC5CCN(c6ccc(C7CCC(=O)NC7=O)cn6)CC5)CC4)cc3)n2)c1F (racemic) [Compound 35]")
"10 to 50 nM"
>>> value_measured("CCCS(=O)(=O)Nc1cccc(-c2nc(-c3ccc(C4CCN(C(=O)CC5CCN(c6ccc(C7CCC(=O)NC7=O)cn6)CC5)CC4)cc3)sc2-c2ccnc(N)n2)c1F (racemic) [Compound 207]")
"> 500 nM"
>>> value_measured("CCCS(=O)(=O)Nc1cccc(-c2nc(CCC3CCN(C(=O)C4CCN(C(=O)C5CCN(c6ccc(C7CCC(=O)NC7=O)cn6)CC5)CC4)CC3)sc2-c2ccnc(N)n2)c1F (racemic) [Compound 205]")
"> 500 nM"
>>> value_measured("CCCS(=O)(=O)Nc1cccc(-c2nc(C(C)(C)C)sc2-c2ccnc(Nc3ccc(C4CCN(C(=O)C[C@H]5CCN(c6ccc(C7CCC(=O)NC7=O)cc6)C5)CC4)cc3)n2)c1F (mixture of isomers) [Compound 165]")
"> 500 nM"
>>> value_measured("CCCS(=O)(=O)Nc1cccc(-c2cn(C3CCN(C(=O)C4(C)CCN(C(=O)C5CCN(c6ccc(C7CCC(=O)NC7=O)cn6)CC5)CC4)CC3)nc2-c2ccncc2)c1F (racemic) [Compound 8]")
"> 500 nM"
>>> value_measured("CCCS(=O)(=O)Nc1cccc(-c2nc(C3CCN(C(=O)C4CCN(C(=O)C5CCN(c6ccc(C7CCC(=O)NC7=O)cn6)CC5)CC4)CC3)sc2-c2ccncc2)c1F (racemic) [Compound 210]")
"50 to 500 nM"
>>> value_measured("CCN(C)S(=O)(=O)Nc1cccc(-c2nc(C(C)(C)C)sc2-c2ccnc(Nc3ccc(N4CCN(C(=O)C5CCN(c6ccc(C7CCC(=O)NC7=O)cn6)CC5)CC4)cn3)n2)c1F (racemic) [Compound 56]")
"10 to 50 nM"
>>> value_measured("CCN(C)S(=O)(=O)Nc1cccc(-c2nc(C(C)(C)C)sc2-c2ccnc(Nc3ccc(N4CCN(C(=O)CN5CCc6cc(C7CCC(=O)NC7=O)ccc6C5)CC4)c(F)c3)n2)c1F (racemic) [Compound 28]")
"10 to 50 nM"
>>> value_measured("CCCS(=O)(=O)Nc1cccc(-c2nc(C(C)(C)C)sc2-c2ccnc(Nc3cccc(OC4CCN(C(=O)C5CCN(c6cc(C7CCC(=O)NC7=O)ccn6)CC5)CC4)c3)n2)c1F (racemic) [Compound 100]")
"> 500 nM"
>>> value_measured("CCN(C)S(=O)(=O)Nc1cccc(-c2nc(C)sc2-c2ccnc(Nc3ccc(N4CCN(C(=O)C5CCN(c6ccc(C7CCC(=O)NC7=O)cn6)CC5)CC4)cn3)n2)c1F (racemic) [Compound 40]")
"10 to 50 nM"
>>> value_measured("CCCS(=O)(=O)Nc1cccc(-c2nc(C(C)(C)C)sc2-c2ccnc(Nc3cnn(CC4CCN(C(=O)C[C@@H]5CCN(c6ccc(C7CCC(=O)NC7=O)cc6)C5)CC4)c3)n2)c1F (mixture of isomers) [Compound 112]")
"> 500 nM"
>>> value_measured("CCCS(=O)(=O)Nc1cccc(-c2cn(C3CCN(C(=O)C4CCN(C(=O)C5CCN(c6ccc(C7CCC(=O)NC7=O)cn6)CC5)CC4)CC3)nc2-c2ccncc2)c1F (racemic) [Compound 7]")
"> 500 nM"
>>> value_measured("CCCS(=O)(=O)Nc1cccc(-c2nc(C)sc2-c2ccnc(Nc3ccc(N4CCN(CC5CCN(c6ccc([C@@H]7CCC(=O)NC7=O)cc6)CC5)CC4)cn3)n2)c1F [Compound 61]")
"< 10 nM"

---

# Dmax per entry
Target: BRAF D594G (Homo sapiens, UniProt P15056, D594G)
Construct: Horizon Discovery (HCT-116 BRAF−/− cells); host or cells: HCT-116 BRAF−/− cells, clone 63, lentiviral transduction
Sequence (P15056 whole entry D594G): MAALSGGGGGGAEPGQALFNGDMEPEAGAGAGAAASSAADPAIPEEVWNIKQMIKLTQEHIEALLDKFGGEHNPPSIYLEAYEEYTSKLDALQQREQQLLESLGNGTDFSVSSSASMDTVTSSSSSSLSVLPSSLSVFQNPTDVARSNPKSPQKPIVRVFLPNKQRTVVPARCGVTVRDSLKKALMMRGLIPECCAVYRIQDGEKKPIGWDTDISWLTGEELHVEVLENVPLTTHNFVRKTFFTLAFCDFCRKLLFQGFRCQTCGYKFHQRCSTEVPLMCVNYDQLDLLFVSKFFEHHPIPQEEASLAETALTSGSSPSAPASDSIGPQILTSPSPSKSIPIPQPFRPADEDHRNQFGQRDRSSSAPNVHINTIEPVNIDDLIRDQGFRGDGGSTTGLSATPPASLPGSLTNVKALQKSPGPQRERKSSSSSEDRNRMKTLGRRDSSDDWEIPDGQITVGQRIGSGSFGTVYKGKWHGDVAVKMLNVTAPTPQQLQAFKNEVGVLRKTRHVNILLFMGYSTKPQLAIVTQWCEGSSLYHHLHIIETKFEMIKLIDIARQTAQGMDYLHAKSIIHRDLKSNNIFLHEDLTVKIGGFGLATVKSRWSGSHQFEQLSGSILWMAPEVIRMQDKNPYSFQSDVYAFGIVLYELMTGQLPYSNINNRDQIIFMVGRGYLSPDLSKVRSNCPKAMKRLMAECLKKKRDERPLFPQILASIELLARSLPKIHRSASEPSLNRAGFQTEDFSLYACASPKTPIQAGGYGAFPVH
Experiment: BRAF HiBiT degradation assay, C-terminal HiBiT-tagged BRAF D594G overexpressed in HCT-116 BRAF−/− cells (clone 63), Nano-Glo HiBiT Lytic assay
Format: cell-based
Details: HCT-116; BRAF D594G; percentage protein degraded at maximal compound effect relative to DMSO
value type: Dmax

>>> value_measured("CCCS(=O)(=O)Nc1cccc(-c2nc(C(C)(C)C)sc2-c2ccnc(NCC3CCN(CC4CCN(c5ccc(C(=O)N[C@H]6CCC(=O)NC6=O)nc5)CC4)CC3)n2)c1F [Compound 147]")
"< 30%"
>>> value_measured("CCCS(=O)(=O)Nc1cccc(-c2nc(C(C)(C)C)sc2-c2ccnc(N[C@H]3CC[C@@H](N4CCN(CC5CCN(c6ccc(C7CCC(=O)NC7=O)cn6)CC5)CC4)CC3)n2)c1F (mixture of isomers) [Compound 134]")
"30 to 70%"
>>> value_measured("CCCS(=O)(=O)Nc1cccc(-c2nc(C3CCN(C(=O)C4(C)CCN(C(=O)C5CCN(c6ccc(C7CCC(=O)NC7=O)cn6)CC5)CC4)CC3)sc2-c2ccnc(N)n2)c1F (racemic) [Compound 197]")
"30 to 70%"
>>> value_measured("CCCS(=O)(=O)Nc1cccc(-c2nc(C3CCN(C(=O)C4CCN(CC5CCN(c6cccc7c6n(C)c(=O)n7C6CCC(=O)NC6=O)CC5)CC4)CC3)sc2-c2ccnc(N)n2)c1F (racemic) [Compound 195]")
"30 to 70%"
>>> value_measured("CCCS(=O)(=O)Nc1cccc(-c2nc(C(C)(C)C)sc2-c2ccnc(Nc3ccc(N4CCN(C(=O)C5CCN(c6ccc(C7CCC(=O)NC7=O)cc6)CC5)CC4)cc3)n2)c1F (racemic) [Compound 38]")
"30 to 70%"
